Data origin, for the record: the supplement of paper PMC10201428

- Test system: VchCAST RNA-guided transposition machinery (E. coli BL21(DE3) host, lacZ target)
- protocol notes: relative integration efficiency (T-LR orientation) vs wild-type transposon end (log2 (normalized fold change)); transposon end mutated: right end (5 bp flank + 75 bp right end); higher = more efficient transposition
If the reported relative integration efficiency (log2) equals or exceeds 0.3, assign Fulfilled. If not, assign Not fulfilled.

Incoming: Does relative integration efficiency (log2) meet or surpass 0.3 for `ACATTTGTTGATACAACCATAAAATGATAATTAATAATCACCCATAAATTGATAATTATCAACAAACGCCCGGTCGCGGTACTCTGATCATAGTCAGACCAACATTGCTACGACCCGTATTCGCACC` ?
Outgoing: Fulfilled

Incoming: hey, is relative integration efficiency (log2) for this one >= 0.3? `ACATTTGTTGATACAACCATACCCGTCGCCGGCACAAACGCCCGGTCGCCGGCGACACAAACGCCCGGTCGCGGTAAGAGGATCATAGTCAGACCAACATTGCTACGACCCGTATTCGCACCGACAC`
Outgoing: Not fulfilled
